Assay: 5 day repeat oral dosing PK of AMXT 1501 dicaprate
Format: in vivo, beagle dogs
Details: both sexes, beagle, dog, plasma, po, 16 mg/kg, 16 mg/kg PO, Day 1, group mean; read-out: Cmax Mean

Molecule | Cmax, ng/mL
CCCCCCCCCCCCCCCC(=O)NCCCC[C@@H](N)C(=O)NCCCNCCCCNCCCN [AMXT 1501 dicaprate] | 238

###

Experiment: 28-day repeat-dose toxicity study, toxicokinetics of AMXT 1501 dicaprate
Format: in vivo, beagle dogs
Details: both sexes, beagle, dog, plasma, po, 16 mg/kg/day, 16 mg/kg/day PO, DFMO 0, Day 28, M+F combined; read-out: t1/2 Median (converted)

Molecule | half-life, h
CCCCCCCCCCCCCCCC(=O)NCCCC[C@@H](N)C(=O)NCCCNCCCCNCCCN [AMXT 1501 dicaprate] | 27.8

###

Assay: 28-day repeat-dose toxicity study, toxicokinetics of AMXT 1501 dicaprate
Format: in vivo, beagle dogs
Settings: both sexes, beagle, dog, plasma, po, 16 mg/kg/day, 16 mg/kg/day PO, DFMO 50 mg/kg/day, Day 28, M+F combined; read-out: t1/2 Median (converted)

Compound | half-life
CCCCCCCCCCCCCCCC(=O)NCCCC[C@@H](N)C(=O)NCCCNCCCCNCCCN [AMXT 1501 dicaprate] | 57.8 h

###

Assay: 5 day repeat oral dosing PK of AMXT 1501 dicaprate
Type: in vivo, beagle dogs
Conditions: both sexes, beagle, dog, plasma, po, 16 mg/kg, 16 mg/kg PO, Day 1, individual animals; read-out: AUC0-t
Experimental Endpoint: AUC(0-t) (ng·h/mL)

Molecule | Unit Info | Data Value
CCCCCCCCCCCCCCCC(=O)NCCCC[C@@H](N)C(=O)NCCCNCCCCNCCCN [AMXT 1501 dicaprate] | ng·h/mL | 3870

###

Assay: 28-day repeat-dose toxicity study, toxicokinetics of AMXT 1501 dicaprate
Assay type: in vivo, beagle dogs
Conditions: both sexes, beagle, dog, plasma, po, 8 mg/kg/day, 8 mg/kg/day PO, DFMO 50 mg/kg/day, Day 28, M+F combined; read-out: AUC0-24 hr Median
Experimental Endpoint: AUC(0-t)

Compound | Data Value
CCCCCCCCCCCCCCCC(=O)NCCCC[C@@H](N)C(=O)NCCCNCCCCNCCCN [AMXT 1501 dicaprate] | 2250 ng·h/mL

###

Assay: 5 day repeat oral dosing PK of AMXT 1501 dicaprate
Format: in vivo, beagle dogs
Conditions: both sexes, beagle, dog, plasma, po, 16 mg/kg, 16 mg/kg PO, Day 1, group mean; read-out: AUC0-t Mean

Molecule | Unit Info | AUC(0-t)
CCCCCCCCCCCCCCCC(=O)NCCCC[C@@H](N)C(=O)NCCCNCCCCNCCCN [AMXT 1501 dicaprate] | ng·h/mL | 3450

###

Test: 28-day repeat-dose toxicity study, toxicokinetics of AMXT 1501 dicaprate
Assay type: in vivo, beagle dogs
Settings: both sexes, beagle, dog, plasma, po, 16 mg/kg/day, 16 mg/kg/day PO, DFMO 50 mg/kg/day, Day 28, M+F combined; read-out: AUC0-24 hr Mean

Compound | AUC(0-t) [ng·h/mL]
CCCCCCCCCCCCCCCC(=O)NCCCC[C@@H](N)C(=O)NCCCNCCCCNCCCN [AMXT 1501 dicaprate] | 4390

###

Test: 28-day repeat-dose toxicity study, toxicokinetics of AMXT 1501 dicaprate
Assay type: in vivo, beagle dogs
Settings: both sexes, beagle, dog, plasma, po, 32 mg/kg/day, 32 mg/kg/day PO, DFMO 0, Day 1, M+F combined; read-out: Cmax Mean

Compound | Unit Info | Cmax
CCCCCCCCCCCCCCCC(=O)NCCCC[C@@H](N)C(=O)NCCCNCCCCNCCCN [AMXT 1501 dicaprate] | ng/mL | 214

###

Assay: 28-day repeat-dose toxicity study, toxicokinetics of AMXT 1501 dicaprate
Format: in vivo, beagle dogs
Conditions: both sexes, beagle, dog, plasma, po, 8 mg/kg/day, 8 mg/kg/day PO, DFMO 0, Day 1, M+F combined; read-out: AUC0-24 hr Median
Experimental Endpoint: AUC(0-t) (ng·h/mL)

Compound | Data Value
CCCCCCCCCCCCCCCC(=O)NCCCC[C@@H](N)C(=O)NCCCNCCCCNCCCN [AMXT 1501 dicaprate] | 1500

###

Experiment: Pharmacokinetic analysis of AMXT 1501 salt forms, single oral tablet dose
Format: in vivo, beagle dogs
Conditions: beagle, dog, plasma, po, 16 mg/kg, single PO dose 16.0 mg/kg (2 x 80 mg tablets), plasma AMXT 1501; read-out: Cmax Median

Molecule | Unit Info | Cmax
CCCCCCCCCCCCCCCC(=O)NCCCC[C@@H](N)C(=O)NCCCNCCCCNCCCN [AMXT 1501 dicaprate] | ng/mL | 278

###

Assay: 5 day repeat oral dosing PK of AMXT 1501 dicaprate
Format: in vivo, beagle dogs
Details: both sexes, beagle, dog, plasma, po, 8 mg/kg, 8 mg/kg PO once daily, Day 5, group mean; read-out: AUC0-t Mean

Compound | Unit Info | AUC(0-t)
CCCCCCCCCCCCCCCC(=O)NCCCC[C@@H](N)C(=O)NCCCNCCCCNCCCN [AMXT 1501 dicaprate] | ng·h/mL | 4750

###

Assay: 5 day repeat oral dosing PK of AMXT 1501 dicaprate
Assay type: in vivo, beagle dogs
Settings: both sexes, beagle, dog, plasma, po, 16 mg/kg, 16 mg/kg PO, Day 1, group mean; read-out: t1/2 Mean (converted)
Experimental Endpoint: half-life

Compound | Data Value
CCCCCCCCCCCCCCCC(=O)NCCCC[C@@H](N)C(=O)NCCCNCCCCNCCCN [AMXT 1501 dicaprate] | 23.2 h

###

Test: 5 day repeat oral dosing PK of AMXT 1501 dicaprate
Format: in vivo, beagle dogs
Settings: both sexes, beagle, dog, plasma, po, 8 mg/kg, 8 mg/kg PO, Day 1, individual animals; read-out: AUC0-t

Compound | AUC(0-t), ng·h/mL
CCCCCCCCCCCCCCCC(=O)NCCCC[C@@H](N)C(=O)NCCCNCCCCNCCCN [AMXT 1501 dicaprate] | 2010

###

Assay: 28-day repeat-dose toxicity study, toxicokinetics of AMXT 1501 dicaprate
Type: in vivo, beagle dogs
Settings: both sexes, beagle, dog, plasma, po, 8 mg/kg/day, 8 mg/kg/day PO, DFMO 0, Day 28, M+F combined; read-out: Tmax Median
Experimental Endpoint: Tmax (h)

Compound | Experimental Endpoint | Unit Info | Data Value
CCCCCCCCCCCCCCCC(=O)NCCCC[C@@H](N)C(=O)NCCCNCCCCNCCCN [AMXT 1501 dicaprate] | Tmax | h | 6

###

Assay: 28-day repeat-dose toxicity study, toxicokinetics of AMXT 1501 dicaprate
Type: in vivo, beagle dogs
Details: both sexes, beagle, dog, plasma, po, 32 mg/kg/day, 32 mg/kg/day PO, DFMO 0, Day 28, M+F combined; read-out: AUC0-t Median
Experimental Endpoint: AUC(0-t) (ng·h/mL)

Compound | Unit Info | Data Value
CCCCCCCCCCCCCCCC(=O)NCCCC[C@@H](N)C(=O)NCCCNCCCCNCCCN [AMXT 1501 dicaprate] | ng·h/mL | 24300

###

Test: 5 day repeat oral dosing PK of AMXT 1501 dicaprate
Type: in vivo, beagle dogs
Conditions: both sexes, beagle, dog, plasma, po, 8 mg/kg, 8 mg/kg PO, Day 1, individual animals; read-out: t1/2 (converted)

Molecule | half-life, h
CCCCCCCCCCCCCCCC(=O)NCCCC[C@@H](N)C(=O)NCCCNCCCCNCCCN [AMXT 1501 dicaprate] | 9.3

###

Assay: 5 day repeat oral dosing PK of AMXT 1501 dicaprate
Type: in vivo, beagle dogs
Conditions: both sexes, beagle, dog, plasma, po, 32 mg/kg, 32 mg/kg PO once daily, Day 5, group mean; read-out: t1/2 Mean (converted)
Experimental Endpoint: half-life (h)

Compound | Experimental Endpoint | Data Value
CCCCCCCCCCCCCCCC(=O)NCCCC[C@@H](N)C(=O)NCCCNCCCCNCCCN [AMXT 1501 dicaprate] | half-life | 10.7

###

Experiment: 28-day repeat-dose toxicity study, toxicokinetics of AMXT 1501 dicaprate
Type: in vivo, beagle dogs
Conditions: both sexes, beagle, dog, plasma, po, 32 mg/kg/day, 32 mg/kg/day PO, DFMO 0, Day 1, M+F combined; read-out: Tmax Mean
Experimental Endpoint: Tmax (h)

Molecule | Experimental Endpoint | Data Value
CCCCCCCCCCCCCCCC(=O)NCCCC[C@@H](N)C(=O)NCCCNCCCCNCCCN [AMXT 1501 dicaprate] | Tmax | 8.6

###

Test: 28-day repeat-dose toxicity study, toxicokinetics of AMXT 1501 dicaprate
Type: in vivo, beagle dogs
Conditions: both sexes, beagle, dog, plasma, po, 8 mg/kg/day, 8 mg/kg/day PO, DFMO 0, Day 28, M+F combined; read-out: AUC0-24 hr Median

Compound | AUC(0-t)
CCCCCCCCCCCCCCCC(=O)NCCCC[C@@H](N)C(=O)NCCCNCCCCNCCCN [AMXT 1501 dicaprate] | 1690 ng·h/mL

Recorded values, source patent US12364709B2.
